Reference source: patent US7700080B2

System: elastase
Test: Elastase inhibiting activity (Suc(Ome)-Ala-Ala-Pro-Val-MCA fluorescence)
Assay type: biochemical
Details: 0.1 mM; 25° C., pH 7.5
PROPERTY: Elastase inhibition rate (%)
Answer with a number only, understood to be in %.

Here are 3 compounds together with their reported answers.
COMPOUND: O=C(O)CCCCC1CCSS1 (stereo not drawn) [α-lipoic acid, reference compound]
OBSERVED: 11.76
//
COMPOUND: CSCCC(NC(=O)CCCCC1CC[S][Zn][S]1)C(=O)O (stereo not shown) [Example 9]
OBSERVED: 68.52
//
COMPOUND: CC(C)C[C@H](NC(=O)N[C@H](C(=O)N[C@@H](CCC(N)=O)C(=O)N[C@@H](C)C=O)[C@@H]1CCNC(=N)N1)C(=O)O [Elastinal, reference compound]
OBSERVED: 56.87

Please turn your attention to the following entry.
Please report the recorded Elastase inhibition rate (%) for O=C(CCCCC1CC[S][Zn][S]1)Nc1ccccc1C(=O)[O-].[Na+] (stereo not shown) [Example 8] . 48.15
